For each of the variants below, state its self-cleavage.
B1: LINE1-full (parent)
chain: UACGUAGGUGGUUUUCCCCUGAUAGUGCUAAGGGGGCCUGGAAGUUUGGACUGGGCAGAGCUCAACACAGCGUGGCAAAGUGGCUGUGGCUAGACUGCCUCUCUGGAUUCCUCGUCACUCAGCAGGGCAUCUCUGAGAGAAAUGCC

Variants of: B1
Assay: self-cleavage, relative activity (ratio to wild type); higher = more cleavage; in vitro, sequencing; the parent is a self-cleaving ribozyme
One number for each entry.

mut	self-cleavage
U62C A117C	0.03
C66U A69G	0.06
A107U A138G	1.71
C28U U45G	1.09
A77G G126A	2.42

Batch of 6 variants: report self-cleavage for each.
1. A43C C66U
2. U45C U62C
3. G7U A136G
4. A30U U46C
5. A31U U52A
6. U15A C101G

1. 0.04
2. 0.07
3. 1.86
4. 1.12
5. 1.73
6. 0.84

I have 7 variants here; please give me self-cleavage for each one.
1. G7U U87A
2. U23A U109A
3. A22U U109C
4. U100C U143C
5. G122U G125C
6. U52C U96A
7. G8C U14G

1: 0.12; 2: 1.33; 3: 0.91; 4: 1.97; 5: 2.14; 6: 0.1; 7: 1.39

Record self-cleavage for all entries; do not skip any.
1. G97C U102C
2. U15G A78G
3. A67U A140U
4. U23C U91A
5. C111A A141G
6. A59G A77C
7. G74U A117U

1. 0.14
2. 0
3. 0.08
4. 0.8
5. 1.03
6. 0.33
7. 1.79

Provide reported self-cleavage for each item, in the same order as listed.
1. A65U U112A
2. G75A G135A
3. A78U U134C
4. U14A A67U
5. A65U G125A
6. A117U U134A

1: 0.14; 2: 1.18; 3: 2.05; 4: 0.1; 5: 0.21; 6: 1.54

Here are 8 variants. What values of self-cleavage were reported for them?
1. A22U G105A
2. A69C A77U
3. U47C U115C
4. C120U A129G
5. U26G G55A
6. A2G U26G
7. U47C A138U
8. C90U A117G

1. 1.29
2. 0.09
3. 2.06
4. 1.84
5. 0.21
6. 0.21
7. 1.52
8. 0.06

Each variant below has a recorded value; state its self-cleavage.
1. G70A A136G
2. U15C G32A
3. G34A U112C
4. U62A U87A
5. U39A C133U
6. U9A A78G

0.11
0.93
0.94
0.04
1.41
1.13

Each of the following entries comes with a recorded value; kindly state self-cleavage for each.
1. G4A U39C
2. A107U C113U
3. U87C U115A
4. A50C U81A
5. A22U C68U

[1.31, 0.69, 0.17, 1.76, 0.13]

Your task in this section: give self-cleavage for each listed record.
1. U100C A107U
2. C101U G126A
3. C90U A124U
4. C3U U15C
5. U1C G106A
6. G70A A142G
7. U1C A59G

[1.21, 1.54, 0.02, 0.45, 0.73, 0.11, 0.1]

Cited source for all entries: the RNAGym collection of RNA variant scans (doi:10.7554/elife.90254)
